Where these numbers come from: ChEMBL document CHEMBL1152451

# assay-name: Drug level in spontaneously hypersensitive rat at 300 mg/kg, po qd for 8 days measured after 24 hrs post dose
# Format: ADME, organism-based
# Set-up: dose 300 mg/kg, route oral
# applied-conditions: spontaneously hypersensitive rat (SHR), in vivo, read-out: Drug uptake
measured-metric: concentration at 24 h (µM)
Answer format: numeric, µM implied, no suffix.

query: Consider the compound `O=C(N[C@@H]1C[C@H]1c1ccccc1)N1CCC(c2nc(-c3ccccn3)no2)CC1` and give its measured concentration at 24 h.
result: 20

----------
# assay-name: Clearance in spontaneously hypersensitive rat at 1 mg/kg, iv and 2 mg/kg, po
# Assay type: ADME, organism-based
# applied-conditions: spontaneously hypersensitive rat (SHR), in vivo
measured-metric: clearance (mL/min/kg)
Answer format: numeric, mL/min/kg implied, no suffix.

query: Consider the molecule O=C(NC1CC1c1ccccc1)N1CCC(c2nc(-c3ccccn3)no2)CC1 (stereo in doubt; 2d) and give its measured clearance.
result: 29

----------
# assay-name: Drug level in spontaneously hypersensitive rat at 300 mg/kg, po qd for 8 days measured after 4 hrs post dose
# Format: ADME, organism-based
# Design: dose 300 mg/kg, route oral
# applied-conditions: spontaneously hypersensitive rat (SHR), in vivo, read-out: Drug uptake
measured-metric: concentration at 4 h (µM)
Answer format: numeric, µM implied, no suffix.

query: Consider the molecule `O=C(N[C@@H]1C[C@H]1c1ccccc1)N1CCC(c2nc(-c3ccccn3)no2)CC1` and give its measured concentration at 4 h.
result: 35

----------
# assay-name: Volume of distribution at steady state in spontaneously hypersensitive rat at 1 mg/kg, iv and 2 mg/kg, po
# Format: ADME, organism-based
# applied-conditions: spontaneously hypersensitive rat (SHR), in vivo, read-out: Vdss
measured-metric: Vd (L/kg)
Answer format: numeric, L/kg implied, no suffix.

query: Consider the compound O=C(NC1CC1c1ccccc1)N1CCC(c2nc(-c3ccccn3)no2)CC1 (stereo in doubt; 2d) and give its measured Vd.
result: 2.7
